This collection of values is drawn from paper PMC6424611.

Target: T1, MBP-fused PDZ domain of ARHGEF12 (human, UniProt Q9NZN5 72-151)
T1 sequence (looked up): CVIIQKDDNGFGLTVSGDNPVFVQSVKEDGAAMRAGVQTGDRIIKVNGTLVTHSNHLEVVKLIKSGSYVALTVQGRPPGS
Test: SPR
Where no end group is shown, it is not given here.

>  <binder>
RSSRTRRETQL (not fully specified (N-terminus); also: biotinylated, position not given here) [biotinylated HPV16 E6 peptide]

>  <measurement.unit>
µM

>  <Kd>
10.9

$$$$
